System: MALME-3M melanoma
assay_info: NCI tumour cell line growth inhibition, 48 h
recorded_metric: TGI (µM)
I only need the number, in µM, no unit after it.

Endpoint output: TGI of CCOC(=O)/C=C(\C(=O)OCC)n1cc(C)c(=O)n(Cc2cnnn2CCCCOC(C)=O)c1=O . Value?
3.79

# query: TGI of entry CC(C)S(=O)(=O)c1ccccc1Nc1nc(Nc2cccc(NC(=O)CN)c2)ncc1Cl
3.12

Param item = O=C(CSC(c1ccccc1)c1ccccc1)N/N=C/c1ccc(Cl)cc1Cl ; retrieve measured TGI.
42

I would be grateful if you could share the reported TGI for COc1ccc2c(c1)C(C)Cc1c(ncnc1-n1c(C)nc3ccccc31)N2C (stereo not given) .
25.2

Please look up its TGI: Cc1ccc(/C(O)=C/C(=O)C(=O)/C=C(\O)c2ccc(C)cc2C)c(C)c1
3.45

---

Can you tell me TGI for the items I'm about to list?
System: EKVX NSCLC
assay_info: NCI tumour cell line growth inhibition, 48 h
Where a SMILES comes first, the peptide text is derived from it. The star is where a group is joined. X36 = O=C(c1ccc(-c2ccc(Cl)cc2Cl)o1)*

Recall the recorded TGI for Cc1cc[c-]cc1.Fc1c[c-]c(-c2ccccn2)c(F)c1.[Pt+2].c1ccc(P(C[PH+](c2ccccc2)c2ccccc2)c2ccccc2)cc1 with EKVX NSCLC and state it.
12.7 µM

Form field - read-out: TGI; system: EKVX NSCLC; submitted item: CCC(C)C(NC(=O)CNC(=O)C(Cc1ccccc1)NC(=O)C1CCCN1C(=O)c1ccc(-c2ccc(Cl)cc2Cl)o1)C(=O)OC (centres undefined) (X36-PFGI-OMe; configuration not given here)
89.9 µM

Any idea what TGI came out for CC(=O)Nc1cc2c(s1)CCC1CC(=O)NN=C21 (centres undefined) on EKVX NSCLC?
> 100 µM

EKVX NSCLC / TGI / O=C1c2ccccc2-c2nc(-c3cccc([N+](=O)[O-])c3)nnc21 : value?
61.1 µM

---

Test system: PC-3 prostate
assay_info: NCI tumour cell line growth inhibition, 48 h
recorded_metric: TGI

For the compound CC(C)CNC(=O)O , what TGI is on record?
> 100 µM

Which measured TGI value corresponds to [Au+].[Au+].[Au+].[c-]1nccn1Cc1ccccc1.[c-]1nccn1Cc1ccccc1.[c-]1nccn1Cc1ccccc1 ?
34.4 µM

Item under review: C[C@H](N)C(=O)Nc1ccc(-c2nc3ccccc3s2)cc1 . Reported TGI?
63.7 µM

# lookup: TGI of CC(=O)O[C@H](C[C@H](C(C)C)N(C)C(=O)[C@@H](NC(=O)[C@H]1CCCCN1C)C(C)C)c1nc(C(=O)N[C@@H](Cc2ccccc2)C[C@H](C)C(=O)O)c(CCOCc2ccccc2)s1
> 10 µM

Fill blank: measured TGI of the compound O=[N+]([O-])c1ccc2c(c1)C(c1ccccc1Cl)=Nc1cn[nH]c1N2 is ____.
> 25 µM

Looking for the measured TGI of O=C(NCCCCCCNCc1cccc2ccccc12)Nc1cccc2ccccc12 , can you help?
> 100 µM

Would you mind telling me what TGI value was observed for Nc1nc(SN=Nc2ccc(S(N)(=O)=O)cc2)c2[nH]cnc2n1 ?
> 100 µM

Recorded TGI of CCC(C#N)NC(=O)NC(C#N)CC (stereo not given) , please.
> 100 µM

Entry Cc1cc(C)cc(Nc2cc(=O)[nH]c(=O)[nH]2)c1 has what TGI?
> 100 µM

Endpoint output: TGI of O=c1oc2ccccc2c(Nc2ccc3c(c2)Oc2ccccc2O3)c1[N+](=O)[O-] . Value?
32.5 µM

Would you mind telling me what TGI value was observed for CCOP(=O)(OCC)c1c(C(=O)OC)cc(=O)[nH]c1-c1ccc(C)cc1 ?
34.2 µM

Would you mind telling me what TGI value was observed for Cc1ccc2c(=O)cc(-c3cccs3)[nH]c2n1 ?
> 95.8 µM

Sample O=C(CSC(c1ccccc1)c1ccccc1)N/N=C/c1ccc(Cl)cc1Cl — what was its TGI?
> 100 µM

I have this compound here, COC(=O)C1=CC(=O)OC1(OO)c1ccccc1 (stereo not given) , and I need its recorded TGI.
> 100 µM

# lookup: TGI of COc1ccc(C(=O)COc2cccc(/C=C3\Oc4ccc5ccccc5c4C3=O)c2)cc1
3.23 µM

---

System: DMS 273 small cell lung
assay_info: NCI tumour cell line growth inhibition, 48 h
Please provide measured TGI for the entries that follow.

Which measured TGI value corresponds to COc1ccc2nc3ccccc3c(NCCCCCCN(CCCl)CCCl)c2c1 ?
0.206 µM

So what does the record say about TGI for O=C(NC(Cc1ccc(I)cc1)C(=O)O)c1ccc(Br)cc1 (stereo unspecified) ?
> 100 µM

TGI for CC(=O)C1=C(C)NC2C=CC=CN12 (stereo unspecified) ?
> 100 µM

Form field: reported TGI of COC(=O)N/N=C(\C)C(CN1CCCCC1)C(C1=C(O)c2ccccc2OC1)c1ccccc1 (stereo unspecified)
> 100 µM

So what's the measured TGI for this one? COC(=O)/C(C)=C/[N+](=O)[O-]
34.6 µM

Reported TGI, compound N.N.N.N.[Cl-].[Co+3].[N-]=[N+]=[N-].[N-]=[N+]=[N-] : ____
> 100 µM

---

Hi there, I'd appreciate the recorded log10(TGI) for every entry that follows.
System: CCRF-CEM leukemia
assay_info: NCI tumour cell line growth inhibition, 48 h
Scale type: logarithmic (base 10). Underlying TGI unit: µM.

Recorded log10(TGI) for Cc1cc(C)[n+](CCOc2ccc(/C(=C(/Cl)c3ccccc3)c3ccccc3)cc2)c(C)c1 , please?
0.52

Recorded log10(TGI) of CC1(C)O/C(=C\c2ccccc2)C(=O)/C(=C/c2ccccc2)O1 , please.
1.65

Entry COc1ccc2ncn(-c3cc(O[C@H](C)c4ccccc4Cl)c(C(N)=O)s3)c2c1 : reported log10(TGI) = ?
0.80

Look up log10(TGI) for this molecule: CC(=O)/C=C/c1ccc(C#Cc2ccccc2)s1
1.68

Look up log10(TGI) for this molecule: CCOC(=O)/C=C(\C(=O)OCC)n1cc(C)c(=O)n(Cc2cnnn2CCCCOC(C)=O)c1=O
0.67

Any idea what log10(TGI) was measured for CC12CCCCC1(C)C2Sc1ccccc1 (stereo not drawn) ?
1.65

// log10(TGI) lookup, key: CCOC(=O)/C1=C(\C)N(c2ccc(C)cc2)C(=O)c2ccccc2C(=O)c2c(OC(C)=O)ccc(OC(C)=O)c21
1.42

Recorded log10(TGI) of CCC(C)(C)c1ccc(OCCCCCCN2CCNCC2)cc1 , please.
0.67

Looking for the measured log10(TGI) of COC(=O)C1=C(C(=O)OC)SC2(S1)C1=C(CCCC1)SC(C(=O)OC)=C2C(=O)OC , can you help?
0.91

Please report the recorded log10(TGI) for Cc1cc(N/N=C/c2nc(-c3ccc(Br)cc3)oc2C)c2cc(Br)ccc2n1 .
1.47

Any idea what its log10(TGI) is? The molecule is CCOC(=O)/C=C(/C(=O)OCC)n1ccc(N)nc1=O
1.88

Consider the molecule shown here: CC(C)C(=O)/C=C/c1ccc(Br)cc1 What is its recorded log10(TGI)?
1.33

Could you share which log10(TGI) value was measured for COc1ccc2c(c1)[C@@]13CCCC[C@H]1[C@@H](C2)N(C)CC3=O ?
1.87

Value lookup for log10(TGI); key = O=C1c2ccccc2CCCCCCCCCCC12OCCCO2
1.92

Quick one: log10(TGI) for COc1cccc(-n2c3nc(=O)n(C)c(=O)c-3nc3ccccc32)c1 ?
1.90

Which log10(TGI) reading was recorded for the molecule Cc1cc(NS(=O)(=O)c2ccc(Nc3c4ccccc4nc4c(C(=O)NCCN(C)C)cccc34)cc2)no1 ?
1.05

---

System: UO-31 renal
assay_info: NCI tumour cell line growth inhibition, 48 h
recorded_metric: TGI

Suppose we examine the compound O=C1CCCCC(=O)OC2(CCCCC2=O)CC1 (stereo not drawn) ; what TGI value has been reported?
> 100 µM

Fill in: TGI of NCCSc1nc2ccccc2c(=O)n1-c1ccccc1 is ___
> 100 µM

// returns reported TGI for input Cc1[nH]c(=O)[nH]c(=O)c1/C=C/C(=O)O
> 1000 µM

Request the reported TGI associated with Cc1cc(C)c(C2[C@H]3C(=O)N(c4ccc(Cc5ccc(N6C(=O)[C@@H]7ON(c8ccccc8)C(c8c(C)cc(C)cc8C)[C@@H]7C6=O)cc5)cc4)C(=O)[C@H]3ON2c2ccccc2)c(C)c1 (stereo partly drawn)
> 100 µM

Give the measured TGI of c1cc2nnnn2nc1N1CCCC1 .
> 100 µM

Requested read-out: TGI. Entry: CCCC(C)NC1=C(NC(C)=O)C(=O)c2ccccc2C1=O (stereo not drawn)
> 100 µM

Please report the recorded TGI for Cc1c(C2=C(Br)C(=O)N(C)C2=O)c(=O)n(C)c(=O)n1C .
33.3 µM

Entry under review: COc1ccc(O)cc1 . Reported TGI?
> 100 µM

Query (compound): Nn1c(CCCCCCCCc2nnc(COc3ccc(Cl)cc3)n2N)nnc1COc1ccc(Cl)cc1 ; field requested: TGI
> 100 µM

State the recorded TGI for this entry: O=S1OC2(c3ccccc3-c3ccccc32)c2ccccc21 (stereo not drawn)
> 100 µM

What value of measured TGI is listed for O=C(COc1ccc(/C=C2\CSc3ccccc3C2=O)cc1)Nc1nccs1 ?
6.73 µM

Could you share which TGI value was measured for COC(=O)N/N=C(\C)C(CN1CCCCC1)C(C1=C(O)c2ccccc2OC1)c1ccccc1 (stereo not drawn) ?
> 100 µM

If you can, please state the reported TGI value of COC(=O)C1=C(C(=O)OC)SC2(S1)C1=C(CCCC1)SC(C(=O)OC)=C2C(=O)OC .
10.9 µM

For CC1=COC(C)(C=C(C#N)C#N)CC1 (stereo not drawn) , what is its reported TGI?
> 100 µM

Fill in the blank: the reported TGI of O=C(Cc1ccccc1)NN1C(=O)/C(=C\c2cccc(O)c2)SC1=Nc1ccccc1 is ____.
> 100 µM

Which TGI reading was recorded for the compound O=C(Cc1ccccc1)NN1C(=O)C(Cl)C1c1ccc(O)cc1 (stereo not drawn) ?
> 100 µM

Using the record for Cc1cc(N/N=C/c2nc(-c3ccc(Br)cc3)oc2C)c2cc(Br)ccc2n1 , report its TGI.
26.8 µM

Entry CCOC(=O)/C=C(/C(=O)OCC)n1ccc(N)nc1=O : reported TGI = ?
> 100 µM

Could you share which TGI value was measured for Nc1nc(CCl)nc(Nc2ccccc2)n1 ?
67.3 µM

Which TGI is reported for this compound? N=C(N)SCc1cccc(-c2nc3ccccc3c(=O)o2)c1
> 100 µM

Suppose we examine the compound NC1=NS(=O)(=O)Nc2nc(-c3ccc([N+](=O)[O-])cc3)[nH]c21 ; what TGI value has been reported?
> 100 µM

Name the recorded TGI for CC(C)CNC(=O)O .
> 100 µM

Looking for the measured TGI of O=C1OC2(OC2c2ccccc2)c2ccccc21 (stereo not drawn) , can you help?
> 100 µM

Data provenance: PubChem BioAssay (NCI)
